test_target: Integrin alpha-IIb/beta-3 (Homo sapiens, UniProt P05106+P08514)
Sequence (P05106 27-788 limits assumed): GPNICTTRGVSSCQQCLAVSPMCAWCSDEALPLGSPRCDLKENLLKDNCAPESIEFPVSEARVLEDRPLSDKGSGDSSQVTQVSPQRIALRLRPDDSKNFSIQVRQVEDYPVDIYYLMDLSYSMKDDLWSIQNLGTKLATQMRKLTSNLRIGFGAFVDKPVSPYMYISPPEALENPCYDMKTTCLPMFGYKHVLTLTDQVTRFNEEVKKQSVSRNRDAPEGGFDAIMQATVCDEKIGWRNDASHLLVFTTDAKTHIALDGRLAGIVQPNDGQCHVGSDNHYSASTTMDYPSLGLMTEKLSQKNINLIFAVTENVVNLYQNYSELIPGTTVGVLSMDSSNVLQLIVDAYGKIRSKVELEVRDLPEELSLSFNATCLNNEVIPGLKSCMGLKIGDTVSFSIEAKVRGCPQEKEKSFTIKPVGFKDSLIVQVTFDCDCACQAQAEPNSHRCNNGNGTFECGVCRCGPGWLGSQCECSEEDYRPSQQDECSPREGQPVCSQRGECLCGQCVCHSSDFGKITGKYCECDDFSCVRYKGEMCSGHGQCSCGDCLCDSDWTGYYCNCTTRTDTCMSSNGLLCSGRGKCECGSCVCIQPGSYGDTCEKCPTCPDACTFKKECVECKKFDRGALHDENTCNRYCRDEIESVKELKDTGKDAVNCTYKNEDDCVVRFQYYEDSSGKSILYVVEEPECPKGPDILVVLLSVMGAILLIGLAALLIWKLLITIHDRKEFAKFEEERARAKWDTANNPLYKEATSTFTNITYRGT
Sequence (P08514 32-887 limits assumed): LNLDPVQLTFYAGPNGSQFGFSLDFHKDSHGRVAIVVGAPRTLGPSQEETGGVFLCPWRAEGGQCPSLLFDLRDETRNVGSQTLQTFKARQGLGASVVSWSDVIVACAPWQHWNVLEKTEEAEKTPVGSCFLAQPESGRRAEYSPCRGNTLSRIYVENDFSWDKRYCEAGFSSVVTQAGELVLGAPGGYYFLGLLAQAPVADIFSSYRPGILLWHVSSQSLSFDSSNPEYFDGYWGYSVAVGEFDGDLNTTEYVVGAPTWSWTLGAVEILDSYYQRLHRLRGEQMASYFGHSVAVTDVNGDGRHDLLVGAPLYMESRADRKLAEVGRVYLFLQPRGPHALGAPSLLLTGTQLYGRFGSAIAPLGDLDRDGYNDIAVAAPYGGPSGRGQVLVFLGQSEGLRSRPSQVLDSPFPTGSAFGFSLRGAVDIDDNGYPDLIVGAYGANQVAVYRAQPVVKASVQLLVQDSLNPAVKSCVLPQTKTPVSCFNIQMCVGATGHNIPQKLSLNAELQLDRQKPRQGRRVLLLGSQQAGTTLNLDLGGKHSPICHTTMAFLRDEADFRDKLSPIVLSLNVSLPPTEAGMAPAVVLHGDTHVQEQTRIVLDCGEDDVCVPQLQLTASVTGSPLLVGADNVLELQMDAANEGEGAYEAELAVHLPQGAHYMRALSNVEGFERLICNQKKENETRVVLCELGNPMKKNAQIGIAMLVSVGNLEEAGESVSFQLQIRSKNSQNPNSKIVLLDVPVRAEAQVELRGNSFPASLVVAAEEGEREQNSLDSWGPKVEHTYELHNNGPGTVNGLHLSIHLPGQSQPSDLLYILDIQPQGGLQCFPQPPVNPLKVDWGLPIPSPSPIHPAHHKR
Sequence (P08514 891-1039 limits assumed): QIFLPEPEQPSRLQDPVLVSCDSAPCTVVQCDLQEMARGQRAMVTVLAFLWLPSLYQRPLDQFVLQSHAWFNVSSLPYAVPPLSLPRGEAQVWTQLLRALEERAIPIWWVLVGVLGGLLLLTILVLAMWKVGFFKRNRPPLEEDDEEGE
protocol: Binding affinity for alpha IIb beta3 integrin
value_kind: Ki (µM)

[I] O=C(O)CC1Cc2ccc(OCCCNc3ccccn3)cc2Cc2ccccc21 (stereo not drawn)
[II] O=C(O)C[C@@H]1Cc2ccc(OCCCNc3ccccn3)cc2Cc2ccccc21
(Q) Which record shows the lower Ki: the first, I , or the second, II ? State the label of the item chosen.
(A) II

* * *

test_target: Integrin alpha-5/beta-1 (Homo sapiens)
protocol: Binding affinity for alpha 5 beta 1 receptor
value_kind: Ki (µM)
Just the number please, in µM, no unit attached.

(Q) Please supply the value of reported Ki for the item O=C(O)C[C@@H]1Cc2ccc(OCCCNc3ccccn3)cc2Cc2ccccc21
(A) 18

* * *

test_target: Integrin alpha-V/beta-3 (Homo sapiens, UniProt P05106+P06756)
Sequence (P06756 31-889 limits assumed, one chain of several): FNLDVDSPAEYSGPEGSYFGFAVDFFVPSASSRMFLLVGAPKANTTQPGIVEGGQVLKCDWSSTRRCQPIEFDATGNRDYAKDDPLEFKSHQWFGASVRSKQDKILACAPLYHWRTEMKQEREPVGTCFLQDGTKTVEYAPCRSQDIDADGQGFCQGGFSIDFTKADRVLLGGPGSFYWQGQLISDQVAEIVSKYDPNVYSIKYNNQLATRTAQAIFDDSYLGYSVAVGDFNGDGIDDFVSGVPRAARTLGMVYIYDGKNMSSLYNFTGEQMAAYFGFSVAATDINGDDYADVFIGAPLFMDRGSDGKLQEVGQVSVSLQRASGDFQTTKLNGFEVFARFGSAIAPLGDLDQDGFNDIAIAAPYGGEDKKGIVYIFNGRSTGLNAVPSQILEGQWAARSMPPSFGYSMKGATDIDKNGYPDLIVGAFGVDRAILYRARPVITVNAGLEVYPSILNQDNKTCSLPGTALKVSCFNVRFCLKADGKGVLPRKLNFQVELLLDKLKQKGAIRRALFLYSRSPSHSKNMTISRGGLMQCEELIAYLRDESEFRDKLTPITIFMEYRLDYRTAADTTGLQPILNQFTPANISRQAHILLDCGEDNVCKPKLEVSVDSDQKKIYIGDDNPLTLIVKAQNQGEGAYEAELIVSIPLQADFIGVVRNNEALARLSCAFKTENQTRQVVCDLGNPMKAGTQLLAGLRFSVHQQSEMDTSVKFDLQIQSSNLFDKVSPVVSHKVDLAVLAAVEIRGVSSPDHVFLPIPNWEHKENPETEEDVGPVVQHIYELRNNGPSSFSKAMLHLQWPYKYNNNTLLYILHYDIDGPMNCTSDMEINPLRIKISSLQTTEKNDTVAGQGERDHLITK
Sequence (P06756 891-1048 limits assumed, one chain of several): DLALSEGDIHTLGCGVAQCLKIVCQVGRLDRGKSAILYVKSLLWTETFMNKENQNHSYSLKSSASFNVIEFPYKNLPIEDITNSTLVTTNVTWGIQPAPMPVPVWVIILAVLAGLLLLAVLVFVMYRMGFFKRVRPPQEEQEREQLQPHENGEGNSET
protocol: Binding affinity for non-peptide Vitronectin receptor (alpha V beta 3)
value_kind: Ki (µM)

[I] O=C(O)C[C@@H]1Cc2ccc(OCCCNc3ccccn3)cc2Cc2ccccc21
[II] O=C(O)C[C@H]1Cc2ccc(OCCCNc3ccccn3)cc2Cc2ccccc21
[III] O=C(O)CC1Cc2ccc(OCCCNc3ccccn3)cc2Cc2ccccc21 (centres undefined)
[IV] CN(Cc1nc2ccccc2[nH]1)C(=O)c1ccc2c(c1)Cc1ccccc1C(CC(=O)O)C2 (centres undefined)
(Q) Hey, quick one: sort these by Ki, low to high? Provide the ranking by listing each label in its place in the requested order.
(A) I, III, IV, II
(I: 0.004 µM, III: 0.008 µM, IV: 0.023 µM, II: 0.55 µM)

* * *

test_target: Integrin alpha-V/beta-5 (Homo sapiens, UniProt P06756+P18084)
Sequence (P06756 31-889 limits assumed): as the sequence (P06756 31-889 limits assumed, one chain of several) above
Sequence (P06756 891-1048 limits assumed): as the sequence (P06756 891-1048 limits assumed, one chain of several) above
Sequence (P18084 24-799 limits assumed): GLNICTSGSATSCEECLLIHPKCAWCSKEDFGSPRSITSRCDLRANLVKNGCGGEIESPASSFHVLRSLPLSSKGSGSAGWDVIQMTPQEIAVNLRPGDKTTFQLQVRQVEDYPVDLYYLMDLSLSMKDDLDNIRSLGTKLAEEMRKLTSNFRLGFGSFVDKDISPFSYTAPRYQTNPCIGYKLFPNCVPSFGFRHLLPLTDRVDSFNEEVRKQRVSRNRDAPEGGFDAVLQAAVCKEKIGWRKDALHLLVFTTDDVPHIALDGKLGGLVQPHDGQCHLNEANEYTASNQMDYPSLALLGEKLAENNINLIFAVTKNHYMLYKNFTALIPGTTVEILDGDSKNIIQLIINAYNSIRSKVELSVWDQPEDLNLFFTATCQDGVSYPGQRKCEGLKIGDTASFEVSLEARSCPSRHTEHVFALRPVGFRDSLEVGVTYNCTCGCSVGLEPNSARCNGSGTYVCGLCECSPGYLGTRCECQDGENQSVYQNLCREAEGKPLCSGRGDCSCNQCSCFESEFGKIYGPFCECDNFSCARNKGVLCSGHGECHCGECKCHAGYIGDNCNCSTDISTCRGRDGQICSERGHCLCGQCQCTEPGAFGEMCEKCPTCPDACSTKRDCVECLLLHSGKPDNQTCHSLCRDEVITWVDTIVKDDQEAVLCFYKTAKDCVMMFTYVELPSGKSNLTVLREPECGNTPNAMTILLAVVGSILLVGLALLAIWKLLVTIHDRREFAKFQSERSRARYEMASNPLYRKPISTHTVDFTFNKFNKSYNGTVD
protocol: Binding affinity for integrin alpha V beta 5 receptor
value_kind: Ki (nM)
Write the value in nM as a bare number.

(Q) Specify reported Ki for the molecule shown: O=C(O)C[C@@H]1Cc2ccc(OCCCNc3ccccn3)cc2Cc2ccccc21
(A) 1.3

* * *

test_target: Integrin alpha-V/beta-3 (Homo sapiens, UniProt P05106+P06756)
protocol: Inhibition of HEK 293 cell adhesion to vitronectin by alpha V beta 3
value_kind: IC50 (nM)

compound	IC50 / nM
O=C(O)CC1Cc2ccc(OCCCNc3ccccn3)cc2Cc2ccccc21 (stereo not drawn)	65

[a] CN(Cc1nc2ccccc2[nH]1)C(=O)c1ccc2c(c1)Cc1ccccc1C(CC(=O)O)C2 (stereo not drawn)
[b] O=C(O)C[C@@H]1Cc2ccc(OCCCNc3ccccn3)cc2Cc2ccccc21
(Q) # min-compare on IC50 between a and b Write the label of whichever entry you select.
(A) b
(b: 60 nM, a: 1800 nM)
